# System: Dihydrofolate reductase (Escherichia coli, UniProt P0ABQ4)
# Sequence (P0ABQ4 whole entry): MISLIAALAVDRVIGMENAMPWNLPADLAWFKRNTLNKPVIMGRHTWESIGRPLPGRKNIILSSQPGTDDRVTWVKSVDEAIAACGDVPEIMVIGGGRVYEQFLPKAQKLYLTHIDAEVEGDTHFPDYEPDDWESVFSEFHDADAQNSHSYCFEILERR
pIC50: −log10 of the molar value.

[
  {
    "Chem smiles": "Cc1c(Sc2ccc(C(=O)N[C@@H](CCC(=O)O)C(=O)O)cc2)oc2nc(N)nc(N)c12",
    "pIC50": 7.70
  }
]

====

# System: Dihydrofolate reductase (Pneumocystis carinii, UniProt P16184)
# Sequence (P16184 whole entry): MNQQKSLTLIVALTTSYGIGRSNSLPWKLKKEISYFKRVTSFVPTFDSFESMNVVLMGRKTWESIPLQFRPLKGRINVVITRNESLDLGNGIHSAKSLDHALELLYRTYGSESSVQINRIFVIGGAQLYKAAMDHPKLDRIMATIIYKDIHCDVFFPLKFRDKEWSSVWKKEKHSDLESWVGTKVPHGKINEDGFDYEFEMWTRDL
pIC50: −log10 of the molar value.
Measured pIC50 accompanies every entry in the list below.
Measured metric: pIC50

[
  {
    "Chem smiles": "Cc1c(Sc2c(F)c(F)c(C(F)(F)F)c(F)c2F)oc2nc(N)nc(N)c12",
    "Recorded value": "< 4.51"
  },
  {
    "Chem smiles": "Cc1cccc(C)c1Sc1oc2nc(N)nc(N)c2c1C",
    "Recorded value": "< 4.70"
  },
  {
    "Chem smiles": "Cc1c(Sc2ccc3ccccc3c2)oc2nc(N)nc(N)c12",
    "Recorded value": "< 4.92"
  }
]
